All values here come from paper PMC4829233.

SYSTEM UNDER TEST: TbTryS (Trypanosoma brucei trypanothione synthetase) (Trypanosoma brucei brucei)
Sequence (Q8IEX1 1-627): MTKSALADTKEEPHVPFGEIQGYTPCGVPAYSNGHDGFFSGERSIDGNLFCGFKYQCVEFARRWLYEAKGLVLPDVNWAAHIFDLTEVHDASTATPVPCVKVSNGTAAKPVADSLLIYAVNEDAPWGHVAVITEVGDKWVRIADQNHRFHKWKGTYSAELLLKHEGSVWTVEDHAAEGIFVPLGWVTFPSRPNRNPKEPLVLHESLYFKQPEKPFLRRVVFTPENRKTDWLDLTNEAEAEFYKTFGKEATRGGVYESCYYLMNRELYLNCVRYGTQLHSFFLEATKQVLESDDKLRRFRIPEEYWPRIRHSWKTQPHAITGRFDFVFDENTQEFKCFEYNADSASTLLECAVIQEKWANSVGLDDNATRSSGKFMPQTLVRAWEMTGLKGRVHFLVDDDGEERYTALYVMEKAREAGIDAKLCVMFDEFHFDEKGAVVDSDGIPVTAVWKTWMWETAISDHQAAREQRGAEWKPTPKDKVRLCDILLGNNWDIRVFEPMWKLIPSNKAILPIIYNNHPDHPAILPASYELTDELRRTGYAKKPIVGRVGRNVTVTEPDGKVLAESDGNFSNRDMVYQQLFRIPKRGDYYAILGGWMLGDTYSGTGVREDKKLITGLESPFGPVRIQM
PROTOCOL SUMMARY: biochemical
SETTINGS: 30 µM
Provide the reported TbTryS Activity ± 2σn-1 (%) of each item.

Recall and state the measured TbTryS Activity ± 2σn-1 (%) for COc1ccc(C2C(C(=O)c3ccc4c(c3)OCCO4)=C(O)C(=O)N2c2nc3ccc(Cl)cc3s2)cc1 (centres unmarked) .
119.0 ± 6.3; 8 (0.95) %

State, in one line, measured TbTryS Activity ± 2σn-1 (%) of COc1ccc(C(=O)C2=C(O)C(=O)N(c3nc4ccc(Cl)cc4s3)C2c2ccc(F)cc2)cc1OC (centres unmarked)
123.2 ± 7.0; 4 (0.83) %

Give TbTryS Activity ± 2σn-1 (%) for the following molecule: COc1ccc(C2C(C(=O)c3ccc4c(c3)OCCO4)=C(O)C(=O)N2c2nc3ccc(C)cc3s2)cc1 (centres unmarked)
128.2 ± 3.6 ; 8 (0.93) %

# return recorded TbTryS Activity ± 2σn-1 (%) for entry COc1cc(C2C(C(=O)c3ccc4c(c3)OCCO4)=C(O)C(=O)N2c2nc3ccc(Cl)cc3s2)ccc1O (centres unmarked)
119.1 ± 4.6; 5 (0.88) %

Look up and state reported TbTryS Activity ± 2σn-1 (%) for COc1ccc(C2C(C(=O)c3ccc4c(c3)OCCO4)=C(O)C(=O)N2c2nc3ccc(OC)cc3s2)cc1 (centres unmarked)
116.4 ± 4.2; 4 (0.87) %
